For each of the molecules below, state its Time.
# Measurement protocol: Toxicity in Caenorhabditis elegans CB5612 assessed as increase in food depletion delay by wide field microscopy based analysis
Answers are plain numbers, in days.

NCCCCCCNc1ncc(-c2ccc(Br)cc2)[nH]1; 0.66
NCCCCCCCCCCCNc1ncc(-c2ccccc2)[nH]1; 3

Switching to the query record.
Query :: Check the records and state Time for NCCCCCCCCCCCCNc1ncc(-c2ccccc2)[nH]1
Result :: 3.5

###

# Measurement protocol: Cytotoxicity against human PBMC cells assessed as survival rate at 100 uM measured after 72 hrs by trypan blue staining based assay relative to control
# Assay type: toxicity, cell-based
# Run conditions: read-out: Survival
For each of the compounds below, state its viability at 72 h, 100 µM.
Give bare numbers, in %.

NCCCCCCCCNc1ncc(-c2ccc(Cl)cc2)[nH]1; 17.5
NCCCCCCCCNc1ncc(-c2ccc(F)cc2)[nH]1; 70
COc1cc([C@@H]2c3cc4c(cc3[C@@H](O[C@@H]3O[C@@H]5CO[C@@H](C)O[C@H]5[C@H](O)[C@H]3O)[C@H]3COC(=O)[C@H]23)OCO4)cc(OC)c1O [ETOPOSIDE]; 71
NCCCCCCNc1ncc(-c2ccccc2)[nH]1; 12.9

Switching to the query record.
Query :: Check the records and state viability at 72 h, 100 µM for NCCCCCCCCNc1ncc(-c2ccc(Br)cc2)[nH]1
Result :: 94
